- System: 653999-131-R-J2-PDC complex spheroids, growth % test/control;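 note: spheroids exposed to agents for seven days; 100% = DMSO vehicle control viability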
- Experiment: Anticancer human tumor 653999-131-R-J2-PDC patient-derived lung adenocarcinoma cell line growth inhibition [AhR]
- Stated conditions: second compound 1 µM; first compound 0.949 µM; stronger effect = lower value
Endpoint: viability, T/C (%)

[
  {
    "Compound": "O=C(C=Cn1cnc(-c2cc(C(F)(F)F)cc(C(F)(F)F)c2)n1)NNc1cnccn1 + CC(CO)NC(=O)c1cc(-c2ccc(Cl)cc2)nn(-c2cnn(C)c2)c1=O",
    "Endpoint": "viability, T/C",
    "Number": 51.7
  },
  {
    "Compound": "CCN(c1cc(-c2ccc(CN3CCOCC3)cc2)cc(C(=O)NCc2c(C)cc(C)[nH]c2=O)c1C)C1CCOCC1 + CC(CO)NC(=O)c1cc(-c2ccc(Cl)cc2)nn(-c2cnn(C)c2)c1=O",
    "Endpoint": "viability, T/C",
    "Number": 105
  },
  {
    "Compound": "O=C(C=Cn1cnc(-c2cc(C(F)(F)F)cc(C(F)(F)F)c2)n1)NNc1cnccn1 + Cc1ccccc1N=Nc1ccc(NC(=O)c2ccnn2C)c(C)c1",
    "Endpoint": "viability, T/C",
    "Number": 49.3
  },
  {
    "Compound": "O=C(C=Cn1cnc(-c2cc(C(F)(F)F)cc(C(F)(F)F)c2)n1)NNc1cnccn1 + Cc1cncc(-c2nc(NCCc3c[nH]c4ccccc34)c3ncn(C(C)C)c3n2)c1",
    "Endpoint": "viability, T/C",
    "Number": 48.4
  },
  {
    "Compound": "CCN(c1cc(-c2ccc(CN3CCOCC3)cc2)cc(C(=O)NCc2c(C)cc(C)[nH]c2=O)c1C)C1CCOCC1 + Cc1ccccc1N=Nc1ccc(NC(=O)c2ccnn2C)c(C)c1",
    "Endpoint": "viability, T/C",
    "Number": 88.3
  },
  {
    "Compound": "CCN(c1cc(-c2ccc(CN3CCOCC3)cc2)cc(C(=O)NCc2c(C)cc(C)[nH]c2=O)c1C)C1CCOCC1 + Cc1cncc(-c2nc(NCCc3c[nH]c4ccccc34)c3ncn(C(C)C)c3n2)c1",
    "Endpoint": "viability, T/C",
    "Number": 104
  }
]
